Data credit: patent US20250235545A1

System: sarcoma SJSA-1 tumor model
Details: 15 mg/kg once a week for three weeks; Table 7
Procedure: Test objective: To investigate the antitumor efficacy of the above compounds in an animal tumor model of sarcoma SJSA-1. Test drug: Polypeptide conjugate, Irinotecan, Belotecan and normal saline control group. Test animals: 6-8 weeks old BALB/c mice, all female. SJSA-1 cells were purchased from ATCC and cultured in a DMEM medium containing 10% fetal bovine serum at 37° C. in 5% CO2. Passaging was performed every three days, and cells within 15 generations were used. […]
Where a SMILES comes first, the peptide text is derived from it. The star is where a group is joined. NEt(2-(20S-CPT-7-yl)ethyl) = CCN(CCc1c2c(nc3ccccc13)-c1cc3c(c(=O)n1C2)COC(=O)[C@]3(O)CC)*; Belotecan = CC[C@@]1(O)C(=O)OCc2c1cc1n(c2=O)Cc2c-1nc1ccccc1c2CCN(C(C)C)*; X2 = CCCCN(CCc1c2c(nc3ccccc13)-c1cc3c(c(=O)n1C2)COC(=O)[C@]3(O)CC)*; X4 = CCCN(CCc1c2c(nc3ccccc13)-c1cc3c(c(=O)n1C2)COC(=O)[C@]3(O)CC)*; X5 = CC[C@@]1(O)C(=O)OCc2c1cc1n(c2=O)Cc2c-1nc1ccccc1c2CCN(CC(C)C)*; Propanoyl(3-maleimido) = O=C1C=CC(=O)N1CCC(=O)*; PEG6 = NCCOCCOCCOCCOCCOCCOCCC(=O)O
Readout Label: SJSA-1 (sarcoma tissue) mean tumor volume (mm^3)
Respond numerically; units are mm^3 and should not be typed.

>>> quantitative_result("CCCN(CCc1c2c(nc3ccccc13)-c1cc3c(c(=O)n1C2)COC(=O)[C@]3(O)CC)C(=O)[C@H](CC(C)C)NC(=O)[C@H](CC(N)=O)NC(=O)[C@H](C)NC(=O)[C@H](C)NC(=O)CCOCCOCCOCCOCCOCCOCCNC(=O)CCN1C(=O)C=CC1=O [MI-6PEG-AANL-D3] ({Propanoyl(3-maleimido)-PEG6}-AANL-X4)")
1521.5
>>> quantitative_result("CC[C@@]1(O)C(=O)OCc2c1cc1n(c2=O)Cc2c-1nc1ccccc1c2CCN(C(=O)[C@H](CC(C)C)NC(=O)[C@H](Cc1ccccc1)NC(=O)CNC(=O)CNC(=O)CCOCCOCCOCCOCCOCCOCCNC(=O)CCN1C(=O)C=CC1=O)C(C)C [MI-6PEG-GGFL-Belotecan] ({Propanoyl(3-maleimido)-PEG6}-GGFL-Belotecan)")
1278.6

Report its SJSA-1 (sarcoma tissue) mean tumor volume (mm^3) with sarcoma SJSA-1 tumor model as the test system: CCN(CCc1c2c(nc3ccccc13)-c1cc3c(c(=O)n1C2)COC(=O)[C@]3(O)CC)C(=O)[C@H](CC(C)C)NC(=O)[C@H](CC(N)=O)NC(=O)[C@H](C)NC(=O)[C@H](C)NC(=O)CCOCCOCCOCCOCCOCCOCCNC(=O)CCN1C(=O)C=CC1=O [MI-6PEG-AANL-D2] ({Propanoyl(3-maleimido)-PEG6}-AANL-{NEt(2-(20S-CPT-7-yl)ethyl)}) 1645.7

Report its SJSA-1 (sarcoma tissue) mean tumor volume (mm^3) with sarcoma SJSA-1 tumor model as the test system: CCCCN(CCc1c2c(nc3ccccc13)-c1cc3c(c(=O)n1C2)COC(=O)[C@]3(O)CC)C(=O)[C@H](CC(C)C)NC(=O)[C@H](CC(N)=O)NC(=O)[C@H](C)NC(=O)[C@H](C)NC(=O)CCOCCOCCOCCOCCOCCOCCNC(=O)CCN1C(=O)C=CC1=O [MI-6PEG-AANL-D4] ({Propanoyl(3-maleimido)-PEG6}-AANL-X2) 1289.8

Report its SJSA-1 (sarcoma tissue) mean tumor volume (mm^3) with sarcoma SJSA-1 tumor model as the test system: CC[C@@]1(O)C(=O)OCc2c1cc1n(c2=O)Cc2c-1nc1ccccc1c2CCN(CC(C)C)C(=O)[C@H](CC(C)C)NC(=O)[C@H](CC(N)=O)NC(=O)[C@H](C)NC(=O)[C@H](C)NC(=O)CCOCCOCCOCCOCCOCCOCCNC(=O)CCN1C(=O)C=CC1=O [MI-6PEG-AANL-D5] ({Propanoyl(3-maleimido)-PEG6}-AANL-X5) 1304.2
